Give TGI for every item shown.
Tested on: SR leukemia
Test: NCI tumour cell line growth inhibition, 48 h
Give bare numbers, in µM.

Guide cases for TGI, answers given:
Memo: COc1ccc2c(c1)c(=O)c1c(NCCN(C)C)ccc3nnn2c31 , reported TGI: 2.9

Memo: O=[N+]([O-])/C(C(Cl)=C(Cl)Cl)=C(\N1CCCCC1)n1nnc2ccccc21 , reported TGI: 58.4

Sample CO[C@@H]1C[C@H](OC(N)=O)[C@@H]2C=C[C@@H]3/C=C(C)/C=C/[C@@H](C)[C@H](/C(C)=C/[C@@H](C)NC(C)=O)OC(=O)/C=C/C=C(C)\C=C\[C@]3(C)[C@@H]2C1 ; TGI observed: 5.11

The recorded TGI for COc1ccc2c3c1OC1C34CCN(C)C(C2)C4=CC(I)C1(OC)OC (stereo unspecified) is 10.2

Consider the record given below.
Lab note: Cc1ccc(-c2nc(-c3cn(C)c4ncccc34)cs2)cc1 gave TGI of 21.8
